- Test system: pancreatic exocrine function
- EXPERIMENT NOTES: 13C-dipeptide breath test in normal rats (Δ13C in exhaled CO2 after oral administration)
- Type: in vivo, rat
- CONDITION: Table 1; overnight-fasted Wistar rats, oral 35 μmol/kg (5 ml/kg); peak in time course of Δ13C(‰) up to 20 min
READOUT TYPE: Peak time (min)

>>> observed_value("C[C@H](NC(=O)CNC(=O)c1ccccc1)[13C](=O)[O-].[Na+] [Na salt of Bz-Gly-(^13C-Ala), reference compound]")
20
>>> observed_value("C[C@H](NC(=O)c1ccccc1)C(=O)N[C@@H](C)[13C](=O)[O-].[Na+] [Na salt of Bz-Ala-(^13C-Ala), reference compound]")
10
>>> observed_value("C[C@H](NC(=O)[C@H](Cc1ccccc1)NC(=O)c1ccccc1)[13C](=O)[O-].[Na+] [Na salt of Bz-Phe-(^13C-Ala), N-benzoyl-L-phenylalanyl-^13C-L-alanine]")
10
>>> observed_value("C[C@H](NC(=O)[C@@H](NC(=O)c1ccccc1)[C@@H](C)O)[13C](=O)[O-].[Na+] [Na salt of Bz-Thr-(^13C-Ala), N-benzoyl-L-threonyl-^13C-L-alanine]")
10
>>> observed_value("C[C@H](NC(=O)[C@H](CCC(N)=O)NC(=O)c1ccccc1)[13C](=O)[O-].[Na+] [Na salt of Bz-Gln-(^13C-Ala), N-benzoyl-L-glutaminyl-^13C-L-alanine]")
10

A. C[C@H](NC(=O)[C@H](CS)NC(=O)c1ccccc1)[13C](=O)[O-].[Na+] [Na salt of Bz-Cys-(^13C-Ala), reference compound]
B. C[C@H](NC(=O)[C@H](CCCNC(=N)N)NC(=O)c1ccccc1)[13C](=O)O [Bz-Arg-(^13C-Ala), reference compound]
Task item: Field: lower Peak time | Options: A / B Please reply using the label of the selected record.
Reply: A

----------
Recorded measurements of Δ^13C(‰) value at 10 min after the administration, one per entry
- Test system: pancreatic exocrine function
- EXPERIMENT NOTES: 13C-dipeptide breath test in chronic pancreatitis rats (oleic acid injected into pancreatic duct)
- Assay type: in vivo, rat
- CONDITION: oral 35 μmol/kg, 10 min, mean±SD

>>> observed_value("C[C@H](NC(=O)[C@H](CO)NC(=O)c1ccccc1)[13C](=O)[O-].[Na+] [Na salt of Bz-Ser-(^13C-Ala), N-benzoyl-L-seryl-^13C-L-alanine]")
"5.94±8.13 ‰"

// Δ^13C(‰) value at 10 min after the administration lookup, molecule = C[C@H](NC(=O)[C@H](Cc1ccccc1)NC(=O)c1ccccc1)[13C](=O)[O-].[Na+] [Na salt of Bz-Phe-(^13C-Ala), N-benzoyl-L-phenylalanyl-^13C-L-alanine] , result: 14.56±10.79 ‰

// Δ^13C(‰) value at 10 min after the administration lookup, molecule = C[C@H](NC(=O)[C@H](Cc1ccc(O)cc1)NC(=O)c1ccccc1)[13C](=O)[O-].[Na+] [Na salt of Bz-Tyr-(^13C-Ala), N-benzoyl-L-tyrosyl-^13C-L-alanine] , result: 15.65±7.93 ‰

// Δ^13C(‰) value at 10 min after the administration lookup, molecule = CC(C)[C@H](NC(=O)c1ccccc1)C(=O)N[C@@H](C)[13C](=O)[O-].[Na+] [Na salt of Bz-Val-(^13C-Ala), N-benzoyl-L-valyl-^13C-L-alanine] , result: 10.62±12.40 ‰

// Δ^13C(‰) value at 10 min after the administration lookup, molecule = C[C@H](NC(=O)[C@H](CCC(N)=O)NC(=O)c1ccccc1)[13C](=O)[O-].[Na+] [Na salt of Bz-Gln-(^13C-Ala), N-benzoyl-L-glutaminyl-^13C-L-alanine] , result: 15.32±13.04 ‰

// Δ^13C(‰) value at 10 min after the administration lookup, molecule = C[C@H](NC(=O)[C@@H](NC(=O)c1ccccc1)[C@@H](C)O)[13C](=O)[O-].[Na+] [Na salt of Bz-Thr-(^13C-Ala), N-benzoyl-L-threonyl-^13C-L-alanine] , result: 12.67±19.74 ‰

// Δ^13C(‰) value at 10 min after the administration lookup, molecule = CSCC[C@H](NC(=O)c1ccccc1)C(=O)N[C@@H](C)[13C](=O)[O-].[Na+] [Na salt of Bz-Met-(^13C-Ala), N-benzoyl-L-methionyl-^13C-L-alanine] , result: 7.69±5.15 ‰

----------
Recorded measurements of Δ^13C(‰) value at 5 min after the administration, one per entry
- System: pancreatic exocrine function
- EXPERIMENT NOTES: 13C-dipeptide breath test in chronic pancreatitis rats (oleic acid injected into pancreatic duct)
- Type: in vivo, rat
- CONDITION: oral 35 μmol/kg, 5 min, mean±SD

// Δ^13C(‰) value at 5 min after the administration lookup, molecule = C[C@H](NC(=O)[C@H](CCC(N)=O)NC(=O)c1ccccc1)[13C](=O)[O-].[Na+] [Na salt of Bz-Gln-(^13C-Ala), N-benzoyl-L-glutaminyl-^13C-L-alanine] , result: 3.41±3.44 ‰

// Δ^13C(‰) value at 5 min after the administration lookup, molecule = C[C@H](NC(=O)[C@H](Cc1ccc(O)cc1)NC(=O)c1ccccc1)[13C](=O)[O-].[Na+] [Na salt of Bz-Tyr-(^13C-Ala), N-benzoyl-L-tyrosyl-^13C-L-alanine] , result: 4.35±3.11 ‰

// Δ^13C(‰) value at 5 min after the administration lookup, molecule = CC(C)[C@H](NC(=O)c1ccccc1)C(=O)N[C@@H](C)[13C](=O)[O-].[Na+] [Na salt of Bz-Val-(^13C-Ala), N-benzoyl-L-valyl-^13C-L-alanine] , result: 2.21±2.74 ‰

// Δ^13C(‰) value at 5 min after the administration lookup, molecule = C[C@H](NC(=O)[C@H](Cc1ccccc1)NC(=O)c1ccccc1)[13C](=O)[O-].[Na+] [Na salt of Bz-Phe-(^13C-Ala), N-benzoyl-L-phenylalanyl-^13C-L-alanine] , result: 4.17±3.95 ‰

// Δ^13C(‰) value at 5 min after the administration lookup, molecule = CSCC[C@H](NC(=O)c1ccccc1)C(=O)N[C@@H](C)[13C](=O)[O-].[Na+] [Na salt of Bz-Met-(^13C-Ala), N-benzoyl-L-methionyl-^13C-L-alanine] , result: 1.52±1.47 ‰

// Δ^13C(‰) value at 5 min after the administration lookup, molecule = C[C@H](NC(=O)[C@H](CO)NC(=O)c1ccccc1)[13C](=O)[O-].[Na+] [Na salt of Bz-Ser-(^13C-Ala), N-benzoyl-L-seryl-^13C-L-alanine] , result: 1.07±1.43 ‰

----------
Recorded measurements of Δ^13C(‰) peak value, one per entry
- Tested on: pancreatic exocrine function
- EXPERIMENT NOTES: 13C-dipeptide breath test in normal rats (Δ13C in exhaled CO2 after oral administration)
- Assay type: in vivo, rat
- CONDITION: Table 1; overnight-fasted Wistar rats, oral 35 μmol/kg (5 ml/kg); exhaled CO2

// below: answered compounds
>>> observed_value("CC[C@H](C)[C@H](NC(=O)c1ccccc1)C(=O)N[C@@H](C)[13C](=O)[O-].[Na+] [Na salt of Bz-Ile-(^13C-Ala), reference compound]")
"39.82 ‰"
>>> observed_value("C[C@H](NC(=O)[C@@H](NC(=O)c1ccccc1)[C@@H](C)O)[13C](=O)[O-].[Na+] [Na salt of Bz-Thr-(^13C-Ala), N-benzoyl-L-threonyl-^13C-L-alanine]")
"47.36 ‰"
>>> observed_value("C[C@H](NC(=O)c1ccccc1)C(=O)N[C@@H](C)[13C](=O)[O-].[Na+] [Na salt of Bz-Ala-(^13C-Ala), reference compound]")
"45.88 ‰"

// Δ^13C(‰) peak value lookup, compound = C[C@H](NC(=O)[C@H](Cc1ccc(O)cc1)NC(=O)c1ccccc1)[13C](=O)[O-].[Na+] [Na salt of Bz-Tyr-(^13C-Ala), N-benzoyl-L-tyrosyl-^13C-L-alanine] , result: 52.64 ‰

// Δ^13C(‰) peak value lookup, compound = C[C@H](NC(=O)[C@H](CC(N)=O)NC(=O)c1ccccc1)[13C](=O)[O-].[Na+] [Na salt of Bz-Asn-(^13C-Ala), reference compound] , result: 41.74 ‰

// Δ^13C(‰) peak value lookup, compound = C[C@H](NC(=O)[C@H](CCC(N)=O)NC(=O)c1ccccc1)[13C](=O)[O-].[Na+] [Na salt of Bz-Gln-(^13C-Ala), N-benzoyl-L-glutaminyl-^13C-L-alanine] , result: 54.56 ‰

// Δ^13C(‰) peak value lookup, compound = C[C@H](NC(=O)[C@H](Cc1c[nH]c2ccccc12)NC(=O)c1ccccc1)[13C](=O)[O-].[Na+] [Na salt of Bz-Trp-(^13C-Ala), reference compound] , result: 39.76 ‰

// Δ^13C(‰) peak value lookup, compound = C[C@H](NC(=O)[C@H](CS)NC(=O)c1ccccc1)[13C](=O)[O-].[Na+] [Na salt of Bz-Cys-(^13C-Ala), reference compound] , result: 31.52 ‰

// Δ^13C(‰) peak value lookup, compound = C[C@H](NC(=O)[C@H](Cc1cnc[nH]1)NC(=O)c1ccccc1)[13C](=O)[O-].[Na+] [Na salt of Bz-His-(^13C-Ala), reference compound] , result: 36.17 ‰
